Ref: patent US10392620B2

Test system: Zymoseptoria tritici (SEPTTR-184)
Experiment: Efficacy of target gene fragments (MgCytB dsRNA tiles) on wheat plants, SEPTTR-184
Type: in vivo
Conditions: 3DC (curative); average of 200, 50, 12.5, 3.125 ppm
readout kind: Disease Control All Rates Average SEPTTR-184 3DC (%)
Answer in %, number only, no unit symbol.

## Input Data request, read-out Disease Control All Rates Average SEPTTR-184 3DC, for MgCytB-T2: 203 bp dsRNA of Zymoseptoria CytB region 2, location 603-805 (SEQ ID NO:5) (nucleic acid, listed as Zymoseptoria tritici, complementary strand of dsRNA) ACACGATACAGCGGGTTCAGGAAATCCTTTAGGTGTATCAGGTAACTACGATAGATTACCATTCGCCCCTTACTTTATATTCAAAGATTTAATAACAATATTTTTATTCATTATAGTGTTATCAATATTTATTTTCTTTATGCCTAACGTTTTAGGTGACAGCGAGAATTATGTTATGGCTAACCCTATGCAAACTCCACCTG
## Output 82

We next turn to a different molecule, shown below.
## Input Data request, read-out Disease Control All Rates Average SEPTTR-184 3DC, for MgCytB-T1: 267 bp dsRNA of Zymoseptoria CytB region 1, location 364-630 (SEQ ID NO:4) (nucleic acid, listed as Zymoseptoria tritici, complementary strand of dsRNA) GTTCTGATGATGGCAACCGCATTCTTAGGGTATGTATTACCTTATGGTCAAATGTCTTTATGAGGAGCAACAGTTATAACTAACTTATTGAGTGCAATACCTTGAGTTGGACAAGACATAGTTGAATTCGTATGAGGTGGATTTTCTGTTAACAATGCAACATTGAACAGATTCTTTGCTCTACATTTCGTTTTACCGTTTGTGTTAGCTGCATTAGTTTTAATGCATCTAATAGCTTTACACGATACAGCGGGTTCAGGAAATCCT
## Output 79
